Origin of measurements: patent US20240327505A1

target: SARS-CoV-2 Spike (S) trimer (SARS-CoV-2), P0DTC2; assay: ELISA, S trimer coated, antibody at 1:50 dilution; details: remark: other sources report otherwise
readout-kind: Optical Density (OD; 450 nm) (OD 450 nm)

binder	units-label	measured-value
AB-009769 (antibody, V domains shown) VH: EVQLVESGGGLVQPGGSLRLSCAASGFTFSSYWMSWVRQAPGKGLEWVANIKQDGSEKYYVDSVKGRFTISRDNAKNSLYLQMNSLRAEDTAVYYCARSPEVLWFGDPVLDNWFDPWGQGTLVTVSS VL: SYELTQPPSVSVSPGQTARITCSGDALPKQYAYWYQQKPGQAPVLVIYKDSERPSGIPERFSGSSSGTTVTLTISGVQAEDEADYYCQSADSSGTYPVVFGGGTKLTVL	OD 450 nm	2.87
